Every entry's value here was drawn from patent US20240025852A1.

- Test summary: Hμrel Low Clearance Assay
- Type: in vitro ADME, human
- Assay setup: HμRELhumanPool 96-well hepatic co-culture; human hepatic co-culture, 1 μM substrate, 0-72 hr incubation; control = geometric mean of 3 replicates
Measurement name: hepatocyte CLint at 1 μM

// hepatocyte CLint at 1 μM value for [2H]C1([2H])CC(CNC(=O)c2cc(F)cc(Cl)c2)CC([2H])([2H])N1CC(=O)NC(C([2H])([2H])[2H])(C([2H])([2H])[2H])C([2H])([2H])[2H] : 1.08 µL/min/1e6 cells

// hepatocyte CLint at 1 μM value for [2H]C1([2H])CC(CNC(=O)c2cc(F)cc(Cl)c2)CC([2H])([2H])N1CC(=O)NC(C)(C)C : 1.21 µL/min/1e6 cells
